Measurement target: Voltage-dependent N-type calcium channel subunit alpha-1B (Homo sapiens, UniProt Q00975)
Sequence (Q00975 whole entry): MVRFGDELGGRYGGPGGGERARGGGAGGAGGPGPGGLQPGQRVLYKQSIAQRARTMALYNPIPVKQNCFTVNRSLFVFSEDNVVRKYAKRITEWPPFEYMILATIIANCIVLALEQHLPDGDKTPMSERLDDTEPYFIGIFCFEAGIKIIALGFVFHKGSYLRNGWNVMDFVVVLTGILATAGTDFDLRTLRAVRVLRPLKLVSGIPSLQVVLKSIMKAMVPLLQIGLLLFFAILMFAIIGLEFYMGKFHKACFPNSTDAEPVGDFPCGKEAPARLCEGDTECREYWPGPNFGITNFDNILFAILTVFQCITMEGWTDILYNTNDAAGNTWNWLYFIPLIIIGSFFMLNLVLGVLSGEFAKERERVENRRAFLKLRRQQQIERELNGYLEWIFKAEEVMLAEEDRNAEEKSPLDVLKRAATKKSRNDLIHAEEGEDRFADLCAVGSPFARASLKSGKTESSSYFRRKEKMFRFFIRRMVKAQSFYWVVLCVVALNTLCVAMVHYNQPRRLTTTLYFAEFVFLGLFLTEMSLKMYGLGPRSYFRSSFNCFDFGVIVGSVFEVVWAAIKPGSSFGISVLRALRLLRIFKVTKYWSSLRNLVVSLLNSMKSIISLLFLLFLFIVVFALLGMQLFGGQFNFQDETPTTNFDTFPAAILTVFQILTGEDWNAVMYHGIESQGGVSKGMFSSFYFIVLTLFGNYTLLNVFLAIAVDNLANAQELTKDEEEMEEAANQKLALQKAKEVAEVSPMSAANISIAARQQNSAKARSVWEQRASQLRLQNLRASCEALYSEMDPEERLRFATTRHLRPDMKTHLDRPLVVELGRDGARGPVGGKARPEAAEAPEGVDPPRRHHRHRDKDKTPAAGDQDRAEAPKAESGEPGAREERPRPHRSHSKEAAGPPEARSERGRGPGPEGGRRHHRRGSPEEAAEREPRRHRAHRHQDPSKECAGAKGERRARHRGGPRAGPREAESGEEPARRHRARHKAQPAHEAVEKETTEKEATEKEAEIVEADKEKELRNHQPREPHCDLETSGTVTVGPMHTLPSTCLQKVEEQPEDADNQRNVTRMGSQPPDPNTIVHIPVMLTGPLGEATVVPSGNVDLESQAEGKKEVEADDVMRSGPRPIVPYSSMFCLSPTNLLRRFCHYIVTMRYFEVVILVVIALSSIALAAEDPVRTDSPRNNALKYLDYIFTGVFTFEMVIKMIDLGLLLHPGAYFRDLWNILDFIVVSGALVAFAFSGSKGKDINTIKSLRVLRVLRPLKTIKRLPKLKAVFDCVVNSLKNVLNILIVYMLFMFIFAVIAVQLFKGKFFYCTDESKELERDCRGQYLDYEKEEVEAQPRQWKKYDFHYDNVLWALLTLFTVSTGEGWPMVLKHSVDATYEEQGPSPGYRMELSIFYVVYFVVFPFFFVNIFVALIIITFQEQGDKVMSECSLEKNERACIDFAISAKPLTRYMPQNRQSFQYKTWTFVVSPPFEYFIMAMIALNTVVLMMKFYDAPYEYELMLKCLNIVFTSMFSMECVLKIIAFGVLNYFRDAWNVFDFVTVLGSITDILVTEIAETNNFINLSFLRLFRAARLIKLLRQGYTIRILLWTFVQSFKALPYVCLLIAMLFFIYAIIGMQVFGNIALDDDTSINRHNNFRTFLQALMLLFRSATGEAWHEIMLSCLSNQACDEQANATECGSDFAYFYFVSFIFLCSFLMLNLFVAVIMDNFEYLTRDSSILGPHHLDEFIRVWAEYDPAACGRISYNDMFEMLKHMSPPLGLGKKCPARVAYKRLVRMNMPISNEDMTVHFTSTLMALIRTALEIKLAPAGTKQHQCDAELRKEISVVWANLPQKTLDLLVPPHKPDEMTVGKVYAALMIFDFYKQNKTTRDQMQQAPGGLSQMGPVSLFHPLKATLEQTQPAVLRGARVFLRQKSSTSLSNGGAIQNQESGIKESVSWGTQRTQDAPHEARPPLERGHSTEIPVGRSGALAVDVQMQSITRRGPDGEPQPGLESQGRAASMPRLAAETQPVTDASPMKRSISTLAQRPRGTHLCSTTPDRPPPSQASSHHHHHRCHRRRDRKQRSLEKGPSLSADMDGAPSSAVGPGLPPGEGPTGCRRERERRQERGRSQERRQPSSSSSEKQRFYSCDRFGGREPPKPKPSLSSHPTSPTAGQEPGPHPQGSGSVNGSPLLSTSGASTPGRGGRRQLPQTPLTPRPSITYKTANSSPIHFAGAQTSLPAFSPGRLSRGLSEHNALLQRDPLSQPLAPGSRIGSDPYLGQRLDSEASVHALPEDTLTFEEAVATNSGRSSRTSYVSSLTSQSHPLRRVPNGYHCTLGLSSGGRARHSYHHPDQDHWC
Test protocol: Inhibition of Cav2.2 expressed HEK293 cells assessed as inhibition of calcium flux by FLIPR assay in presence of 30 mM of potassium
Type: cell-based
Recorded endpoint: pIC50
FYI, pIC50 means -log10 of a concentration in mol per litre.

Please review the entries below; each comes with its answer.
[
  {
    "Smiles record": "CN(C)c1cccc(C(=O)N2CCC(N(C3CC3)S(=O)(=O)c3cccc(C(F)(F)F)c3)CC2)c1",
    "pIC50": 6.62
  },
  {
    "Smiles record": "COc1cccc(OC)c1CN1CCC(N(C2CC2)S(=O)(=O)c2cccc(C(F)(F)F)c2)CC1",
    "pIC50": 7.22
  },
  {
    "Smiles record": "O=C(c1cccc(OC(F)(F)F)c1)N1CCC(N(C2CC2)S(=O)(=O)c2cccc(C(F)(F)F)c2)CC1",
    "pIC50": 6.43
  },
  {
    "Smiles record": "O=C(c1ccccc1OC(F)(F)F)N1CCC(N(C2CC2)S(=O)(=O)c2cccc(C(F)(F)F)c2)CC1",
    "pIC50": 6.92
  },
  {
    "Smiles record": "CCCN(C1CCN(Cc2c(OC)cccc2OC)CC1)S(=O)(=O)c1cccc(C(F)(F)F)c1",
    "pIC50": 6.92
  }
]

get_value(item= O=C(c1ccc(OC(F)(F)F)cc1)N1CCC(N(C2CC2)S(=O)(=O)c2cccc(C(F)(F)F)c2)CC1 , readout=pIC50) returns 6.52

get_value(item= COC(=O)c1cccc(C(=O)N2CCC(N(C3CC3)S(=O)(=O)c3cccc(C(F)(F)F)c3)CC2)c1 , readout=pIC50) returns 6.42

get_value(item= CS(=O)(=O)c1ccccc1C(=O)N1CCC(N(C2CC2)S(=O)(=O)c2cccc(C(F)(F)F)c2)CC1 , readout=pIC50) returns 6.18

get_value(item= CS(=O)(=O)c1ccc(F)cc1C(=O)N1CCC(N(C2CC2)S(=O)(=O)c2cc(C(F)(F)F)ccc2F)CC1 , readout=pIC50) returns 5.60

get_value(item= CS(=O)(=O)c1ccc(F)cc1C(=O)N1CCC(N(C2CC2)S(=O)(=O)c2cccc(OC(F)(F)F)c2)CC1 , readout=pIC50) returns 5.96

get_value(item= CS(=O)(=O)c1ccc(F)cc1C(=O)N1CCC(N(C2CC2)S(=O)(=O)c2cccc(C(F)(F)F)c2)CC1 , readout=pIC50) returns 6.25

---

Measurement target: hERG (Homo sapiens)
Sequence (Q12809 whole entry): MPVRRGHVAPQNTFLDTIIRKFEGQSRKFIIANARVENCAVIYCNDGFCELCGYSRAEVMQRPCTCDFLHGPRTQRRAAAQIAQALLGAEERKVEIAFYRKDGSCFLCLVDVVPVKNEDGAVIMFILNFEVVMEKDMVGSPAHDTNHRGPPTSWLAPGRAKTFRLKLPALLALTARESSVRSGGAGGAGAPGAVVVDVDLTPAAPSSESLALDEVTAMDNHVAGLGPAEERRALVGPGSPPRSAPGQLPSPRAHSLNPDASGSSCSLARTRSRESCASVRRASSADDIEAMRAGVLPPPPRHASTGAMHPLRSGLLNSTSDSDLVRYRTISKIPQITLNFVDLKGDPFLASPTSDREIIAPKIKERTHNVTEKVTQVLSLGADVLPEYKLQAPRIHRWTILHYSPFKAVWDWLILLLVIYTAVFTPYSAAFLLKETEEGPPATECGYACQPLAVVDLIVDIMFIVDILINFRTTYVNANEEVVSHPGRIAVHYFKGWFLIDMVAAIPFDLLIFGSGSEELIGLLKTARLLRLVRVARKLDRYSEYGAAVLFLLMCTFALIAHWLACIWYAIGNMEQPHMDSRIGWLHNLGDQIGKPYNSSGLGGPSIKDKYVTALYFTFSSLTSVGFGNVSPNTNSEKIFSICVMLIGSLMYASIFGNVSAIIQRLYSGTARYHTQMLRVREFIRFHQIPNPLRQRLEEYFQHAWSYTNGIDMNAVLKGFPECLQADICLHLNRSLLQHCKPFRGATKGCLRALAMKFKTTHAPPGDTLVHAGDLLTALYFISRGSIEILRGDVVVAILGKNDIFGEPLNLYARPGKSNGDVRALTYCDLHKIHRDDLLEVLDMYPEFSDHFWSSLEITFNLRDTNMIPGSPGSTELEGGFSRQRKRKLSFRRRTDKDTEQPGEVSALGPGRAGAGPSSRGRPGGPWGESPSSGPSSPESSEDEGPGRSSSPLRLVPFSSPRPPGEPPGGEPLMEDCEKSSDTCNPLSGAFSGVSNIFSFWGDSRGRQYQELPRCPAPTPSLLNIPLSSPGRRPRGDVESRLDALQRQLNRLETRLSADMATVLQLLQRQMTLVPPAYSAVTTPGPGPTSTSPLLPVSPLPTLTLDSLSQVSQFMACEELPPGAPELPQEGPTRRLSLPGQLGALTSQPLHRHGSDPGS
Test protocol: Displacement of [35S]-MK-0499 from human ERG at 1 uM
Measurement context: probe [35S]-MK-0499
Recorded endpoint: inhibition at 1 µM (%)
Provide only the numeric value, understood in %.

Please review the entries below; each comes with its answer.
[
  {
    "Smiles record": "COC(=O)c1cccc(C(=O)N2CCC(N(C3CC3)S(=O)(=O)c3cccc(C(F)(F)F)c3)CC2)c1",
    "Recorded result": 2.4
  },
  {
    "Smiles record": "O=C(c1ccc(OC(F)(F)F)cc1)N1CCC(N(C2CC2)S(=O)(=O)c2cccc(C(F)(F)F)c2)CC1",
    "Recorded result": 0
  },
  {
    "Smiles record": "COc1cccc(OC)c1CN1CCC(N(C2CC2)S(=O)(=O)c2cccc(C(F)(F)F)c2)CC1",
    "Recorded result": 70
  },
  {
    "Smiles record": "CCCN(C1CCN(Cc2c(OC)cccc2OC)CC1)S(=O)(=O)c1cccc(C(F)(F)F)c1",
    "Recorded result": 91
  }
]

// below: inhibition at 1 µM requested for another compound
get_value(item= CN(C)c1cccc(C(=O)N2CCC(N(C3CC3)S(=O)(=O)c3cccc(C(F)(F)F)c3)CC2)c1 , readout=inhibition at 1 µM) returns 0
